Just for reference, ChEMBL document CHEMBL1127897 is where these values come from.

- Test system: H9
- methodNotes: Tested for anti-HIV activity against acutely infected H9 cells, activity expressed as EC50.
- Assay type: functional, cell-based
- measurementParameters: Homo sapiens
endpoint: EC50

Qu. Return EC50 for the following compound: CC(C)(O)CCC(=O)[C@](C)(O)C1[C@H](O)C(=O)[C@@]2(C)[C@@H]3CC=C4[C@@H](C[C@H](O)[C@@H](O)C4(C)C)[C@]3(C)C(=O)C[C@]12C (some centres undefined)
Ans. 2.5 µg/mL

Qu. Return EC50 for the following compound: "CC(C)(O)/C=C/C(=O)[C@](C)(O)[C@H]1[C@H](O)C[C@@]2(C)[C@@H]3CC=C4[C@@H](C[C@H](O)[C@@H](O)C4(C)C)[C@]3(C)C(=O)C[C@]12C"
Ans. 0.06 µg/mL

Qu. Return EC50 for the following compound: CC(C)(O)/C=C/C(=O)[C@](C)(O)C1[C@H](O)C(=O)[C@@]2(C)[C@@H]3CC=C4[C@@H](C[C@H](O)[C@@H](O)C4(C)C)[C@]3(C)C(=O)C[C@]12C (some centres undefined)
Ans. 0.3 µg/mL

Qu. Return EC50 for the following compound: CC(C)(O)CCC(=O)[C@](C)(O)C1[C@H](O)C[C@@]2(C)[C@@H]3CC=C4[C@@H](C[C@H](O)[C@@H](O)C4(C)C)[C@]3(C)C(=O)C[C@]12C (some centres undefined)
Ans. 0.8 µg/mL
